targetOfAssay: Grb2 SH2 (UniProt P62993)
Sequence (P62993 whole entry, looked up, the tested form may be a part): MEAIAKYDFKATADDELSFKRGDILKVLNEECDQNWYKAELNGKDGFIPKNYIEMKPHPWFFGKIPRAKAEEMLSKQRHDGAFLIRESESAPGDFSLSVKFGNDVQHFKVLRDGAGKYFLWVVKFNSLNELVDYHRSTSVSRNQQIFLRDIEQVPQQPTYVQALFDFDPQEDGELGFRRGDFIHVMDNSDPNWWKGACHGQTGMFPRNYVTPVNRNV
test: SH2 binding enrichment of the phosphorylated peptide, bacterial display (enrichment ratio); higher = better substrate or ligand; peptides without Tyr show the background;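 also: peptide library displayed on the E. coli surface as eCPX fusions, selected cells deep-sequenced, score is each peptide's frequency after selection divided by its frequency in the input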
Recorded SH2 binding enrichment for the following sequences

>  <constructSequence>
NSNAAYEESHF [LRIF1_Y714_Q716E]

>  <targetOfAssay>
Grb2 SH2 (UniProt P62993)

>  <SH2 binding enrichment>
0.792

$$$$
>  <constructSequence>
LSAPWYLNRIS [HEXA_Y421]

>  <targetOfAssay>
Grb2 SH2 (UniProt P62993)

>  <SH2 binding enrichment>
1.19

$$$$
>  <constructSequence>
FHKALYTVRSY [PDE6C_Y266]

>  <targetOfAssay>
Grb2 SH2 (UniProt P62993)

>  <SH2 binding enrichment>
0.814

$$$$
>  <constructSequence>
FESPRYLQVRI [FANCA_Y488_H492R]

>  <targetOfAssay>
Grb2 SH2 (UniProt P62993)

>  <SH2 binding enrichment>
0.763

$$$$
>  <constructSequence>
VRFMAYTDETF [F8_Y450]

>  <targetOfAssay>
Grb2 SH2 (UniProt P62993)

>  <SH2 binding enrichment>
0.734

$$$$
>  <constructSequence>
TGDFGYRAPGY [TNS2_Y668]

>  <targetOfAssay>
Grb2 SH2 (UniProt P62993)

>  <SH2 binding enrichment>
0.747

$$$$
>  <constructSequence>
DTKPVYQNLRQ [BOD1_Y82_A81V]

>  <targetOfAssay>
Grb2 SH2 (UniProt P62993)

>  <SH2 binding enrichment>
20.8

$$$$
>  <constructSequence>
SHSMRYFFTAV [HLA-C_Y31_D33F]

>  <targetOfAssay>
Grb2 SH2 (UniProt P62993)

>  <SH2 binding enrichment>
1.39

$$$$
>  <constructSequence>
HFEFKYVINAI [MAOA_Y268_C266F_YF]

>  <targetOfAssay>
Grb2 SH2 (UniProt P62993)

>  <SH2 binding enrichment>
0.814

$$$$
>  <constructSequence>
SSVPDYLAAVD [GLB1_Y154_D151V]

>  <targetOfAssay>
Grb2 SH2 (UniProt P62993)

>  <SH2 binding enrichment>
0.774

$$$$
>  <constructSequence>
IKIMGYFIRTI [IDS_Y490_S491F]

>  <targetOfAssay>
Grb2 SH2 (UniProt P62993)

>  <SH2 binding enrichment>
1.82

$$$$
>  <constructSequence>
ENELTYYCYKK [CD59_Y86_C89Y]

>  <targetOfAssay>
Grb2 SH2 (UniProt P62993)

>  <SH2 binding enrichment>
0.793

$$$$
>  <constructSequence>
SHKELYKWFTS [DYNC1H1_Y3051_E3048K]

>  <targetOfAssay>
Grb2 SH2 (UniProt P62993)

>  <SH2 binding enrichment>
1.02

$$$$
>  <constructSequence>
RSFSPYDFQPC [TNS1_Y796_YF]

>  <targetOfAssay>
Grb2 SH2 (UniProt P62993)

>  <SH2 binding enrichment>
0.744

$$$$
>  <constructSequence>
RGDTVYTVNRM [KBTBD13_Y404]

>  <targetOfAssay>
Grb2 SH2 (UniProt P62993)

>  <SH2 binding enrichment>
1.09

$$$$
>  <constructSequence>
LKSEMYQKLLK [RGS13_Y146]

>  <targetOfAssay>
Grb2 SH2 (UniProt P62993)

>  <SH2 binding enrichment>
0.832

$$$$
>  <constructSequence>
WAFNLYDINKY [KCNIP3_Y174_D179Y]

>  <targetOfAssay>
Grb2 SH2 (UniProt P62993)

>  <SH2 binding enrichment>
0.906

$$$$
>  <constructSequence>
PHMQTYEVDPN [SDHB_Y61_L65P]

>  <targetOfAssay>
Grb2 SH2 (UniProt P62993)

>  <SH2 binding enrichment>
0.974

$$$$
>  <constructSequence>
VCDALYPPGPP

>  <targetOfAssay>
Grb2 SH2 (UniProt P62993)

>  <SH2 binding enrichment>
0.863

$$$$
>  <constructSequence>
SLESAYPEVSQ [TTF1_Y357_G360V]

>  <targetOfAssay>
Grb2 SH2 (UniProt P62993)

>  <SH2 binding enrichment>
0.764

$$$$
>  <constructSequence>
FKPGFYNLKEK [LAMA1_Y490_C485Y_YF]

>  <targetOfAssay>
Grb2 SH2 (UniProt P62993)

>  <SH2 binding enrichment>
0.915

$$$$
>  <constructSequence>
KSLFHYRQFSA [CPS1_Y1491_YF]

>  <targetOfAssay>
Grb2 SH2 (UniProt P62993)

>  <SH2 binding enrichment>
0.734

$$$$
>  <constructSequence>
SAQHHYESLQT [BIN1_Y157_R154Q]

>  <targetOfAssay>
Grb2 SH2 (UniProt P62993)

>  <SH2 binding enrichment>
0.781

$$$$
>  <constructSequence>
ELELLYLDRNS [NYX_Y284]

>  <targetOfAssay>
Grb2 SH2 (UniProt P62993)

>  <SH2 binding enrichment>
1.03

$$$$
>  <constructSequence>
NDEDIYKGLPD [VAV3_Y141]

>  <targetOfAssay>
Grb2 SH2 (UniProt P62993)

>  <SH2 binding enrichment>
0.85

$$$$
>  <constructSequence>
GRLPEYNTPIA [CCDC151_Y542_R545P]

>  <targetOfAssay>
Grb2 SH2 (UniProt P62993)

>  <SH2 binding enrichment>
0.807

$$$$
>  <constructSequence>
TLQNMYGCDVG [HLA-B_Y123_S121N]

>  <targetOfAssay>
Grb2 SH2 (UniProt P62993)

>  <SH2 binding enrichment>
1.01

$$$$
>  <constructSequence>
RDHYGYRQSVT [CD55_Y245]

>  <targetOfAssay>
Grb2 SH2 (UniProt P62993)

>  <SH2 binding enrichment>
0.98

$$$$
>  <constructSequence>
PFFTSYPPSPD [GDAP2_Y491_YF]

>  <targetOfAssay>
Grb2 SH2 (UniProt P62993)

>  <SH2 binding enrichment>
0.739

$$$$
